PROPERTY_NAME: melting point (°C)

Consider the worked cases shown below.
STRUCTURE_SMILES | melting point / °C
Cc1cccc(NC(=O)NCC(=O)N(CC(=O)OC(C)(C)C)c2cccc(Cl)c2Cl)c1 | 135
Cc1cc(COc2ccc(S(=O)(=O)NC[C@@H](C(=O)NO)N3CCN(S(C)(=O)=O)CC3)cc2)c2ccccc2n1 | 185

I = Cn1c(COc2ccc(C#N)cc2)nc2nc(CO)ccc21
II = O=[N+]([O-])c1nccn1COC(CO)CO
melting point comparison. Which is larger, I or II ? Response format: the label of the selected entry. I

###

Entries annotated with measured melting point

MOLECULE | melting point
Clc1ccc2c3c(cccc13)C(NCCCn1ccnc1)=N2 | 177 to 178 °C
CSc1nccc(Oc2ccc(NC(=O)OC(C)(C)C)c3ccccc23)n1 | 173 to 174 °C

melting point reading for O=C(CCCN1CCC2(CC1)SC(c1ccc(Cl)cc1)c1ccccc12)c1ccc(F)cc1F (stereo not given) : 98 to 100 °C

response.value for O=C(Nc1ccc(-n2nc(C(F)(F)F)cc2C(F)(F)F)cc1)c1ccc(F)cc1Cl (field: melting point) = 155 to 157 °C

Lookup result for CCCCC1(COC(=O)C(C)(C)C)C(=O)N(c2ccccc2)N(c2ccccc2)C1=O ; measured melting point: 116 to 117 °C

###

Parameter: melting point. Scope: all listed entries.

response.value for CCCCc1ncc(C=C2C(=O)NC(=O)N2Cc2ccc(Cl)cc2)n1Cc1ccc(C(=O)O)cc1 (field: melting point) = 225 to 227 °C

// recorded melting point for CN1C(=O)[C@H](NC(=O)COc2ccccc2)N=C(c2ccccc2)c2ccccc21 : 126 to 128 °C

The reported melting point of the compound Nc1cc(F)c2[nH]nc(NC(=O)c3ccccc3)c2c1 was 208 °C

Form field melting point, entry Cc1ccc(C(=O)c2noc(CS(=O)c3ccccc3)n2)cc1 (centres undefined) : 97 to 99 °C

Value of measured melting point for the entry Cc1ccccc1Cc1cccc(-c2ncc3c(n2)CCOC3)n1 : 132 to 133 °C

###

In this section, each of the molecules is paired with its reported melting point.

MOLECULE | melting point
Oc1c2c(nc3ccc(C4CCCCC4)cc13)CCCC2 | 292 to 295 °C
CCOP(=S)(OCC)Oc1nsc(N(C)C)n1 | 48 °C
O=C(O)CCC(=O)Nc1ccc(N2CCN(C3(c4ccc(-c5ccccc5)cc4)C(=O)NC(=O)NC3=O)CC2)cc1 | 246 to 247 °C
Cc1cc(C)n(CC2CC3c4cccc5[nH]cc(c45)CC3N(C)C2)n1 (stereo not given) | 187 to 190 °C
COc1ccc2nn(C=Cc3ccc(-c4ccccc4)cc3)nc2c1 | 165 to 175 °C

The reported value for CCC(CC)Nc1cc(C(=O)OC)ccc1N1C(=O)CCC1(CO)CO in terms of melting point is 183 to 185 °C

According to the records, this molecule CCN(CC)C(=O)Nc1ccc2oc3c(c2c1)CCCC3 displays melting point of 179 to 180 °C

###

PROPERTY_NAME: melting point

Below, 4 compounds whose answers are already recorded.
STRUCTURE_SMILES | melting point
CCOC(=O)Nc1nc(C)c(-c2nc3ccccc3c(=O)n2-c2ccccc2)s1 | 248 to 251 °C
CC1(C)C2CC[C@@]1(N1CCOCC1)C(=O)C2 | 89.5 to 90.5 °C
COc1ccc(Cc2oc3ccc(OC)cc3c2CC#N)cc1 | 83 °C
CC1=C(C(=O)OC(C)(C)C)C(c2ccccc2F)C(C(=O)OC(C)(C)C)=C(C)N1 | 201 to 202 °C

Please find the next compound below.
Record CC(C)(C)NC(=O)[C@@H]1C[C@@H]2CCCC[C@@H]2CN1C[C@H]1OC(=O)N[C@H]1Cc1ccccc1 , field melting point: 202 to 204 °C

###

PROPERTY_NAME: melting point

COMPOUND | melting point
CC1=C(/C=C/S(=O)(=O)NC(C)C)C(c2cc([N+](=O)[O-])ccc2Cl)C(C(=O)OC(C)C)=C(C)N1 (centres undefined) | 199 to 201 °C
CS/C=C(/C)n1c(=O)n(Cc2cc(C(F)(F)F)cc(C(F)(F)F)c2)c2ccccc21 | 148 °C
Cc1csc2nc(=O)n(C)c(-c3ccccc3F)c12 | 176 to 178 °C
Cc1ccc2c(c1)NCc1ccccc1O2 | 84 to 86 °C
COc1cc(C)cc(NC(=O)c2nnnn2Cc2ccccc2)c1OCc1ccccc1 | 181 to 183 °C
O=c1c2c[nH]c3c(c-2nn1-c1ccc(Cl)cc1)CN(CCc1ccccc1)CC3 | 256 to 259 °C
CC(C)n1nc(-c2c(-c3ccccc3)nn3ccc(C(=O)NC4CC4)cc23)ccc1=O | 184 to 185 °C
CCCNC(=O)C(C)(C)Cc1ccc2c(c1)c(Cc1ccc(C(=O)NS(=O)(=O)c3ccccc3C)cc1OC)cn2CCC | 102 to 112 °C

Record CCCCC(=O)N(CCOC)Cc1ccc(-c2ccccc2-c2nnn[nH]2)cc1 , field melting point: 120 to 122 °C

###

PROPERTY_NAME: melting point

Recorded results for 3 compounds are shown here.
STRUCTURE_SMILES | melting point
Cc1oc2ccccc2c1C(=O)O | 171 to 176 °C
O=c1c(Cc2ccccc2)cn(-c2cccc(Cl)c2)c2ncccc12 | 170 to 171 °C
CCCOC(=O)Nc1nc2ccccc2c2c1nc(COCC)n2CC(C)(C)NS(C)(=O)=O | 125 to 127 °C

The compound listed as COc1nc(C)cnc1NS(=O)(=O)c1cccnc1-c1ccc(NC(C)C)cc1 has a reported melting point of 105 to 107 °C

Given item O=C(O)CCCCc1ccc(NS(=O)(=O)c2ccccc2)cn1 , the value recorded as its melting point is 136 to 138 °C

Form: compound = COC(=O)c1cc(Cl)c(NC(C)=O)c2c1OCCC2 ; melting point = 184 °C

C[C@@H](Cc1c2n(c3cc(F)c(O)cc13)CCC2)NC(=O)OC(C)(C)C yielded melting point of 198 to 199 °C

# compound CC(C)c1cccc(C(C)C)c1N=C(c1ccccc1)N(CC(=O)c1ccccc1)c1c(C(C)C)cccc1C(C)C ; its melting point = 142 to 143 °C

Form: compound = O=C(c1ccc(Cl)cc1)c1ccc2c(c1)C(c1cccc(Cl)c1)=NCC(=S)N2 ; melting point = 125 °C

###

PROPERTY_NAME: melting point

Sample records with melting point:
MOLECULE | melting point
Cn1nnc(-c2ccc(CNc3n[nH]c4ncnc(Nc5cccc(Cl)c5)c34)cc2)n1 | 232 to 235 °C
COCCCNC(=O)c1ccc(C(=O)N2CCN(c3ncccc3NCC(C)C)CC2)nc1 | 109 to 110 °C
Nc1ccccc1CCN1CCN(c2ccccc2)CC1 | 103 °C
CCCNC(=S)NS(=O)(=O)c1cc2c(cc1OC)OCC(NC(=O)c1cc(F)ccc1OC)C2 (centres undefined) | 172 to 173 °C
CCOC(=O)CCCC(=O)CNC(=O)c1csc(NC(=O)NCc2ccccn2)n1 | 110 °C
CNC(=O)CN(C)Cc1ccc(CCn2cnc3cc(-c4ccc(Cl)cc4)sc3c2=O)cc1 | 146 to 149 °C
Cc1cccc(NC(=O)NCC(=O)N(CC(=O)OC(C)(C)C)c2ccccc2Oc2ccccc2)c1 | 204 °C
CC(C)(C)C(CO)NC(=O)C(CC(=O)O)N1C=CN(c2ccc(-c3ccccc3)cc2)C1 (mixture of isomers) | 145 to 150 °C

Attention now turns to another entry.
Recorded result, Cc1cc(OC(=O)c2ccccc2)c2ccccc2c1O , melting point: 172 to 174 °C

###

Recorded melting point, one value per entry.

# example entries with known answers
MOLECULE | PROPERTY_NAME | TEST_RESULT
CCOC(=O)c1c2ccc(CC(=O)N(OC)C3COC(C)(C)O3)ccc-2c(C(=O)OCC)c1N (stereo not given) | melting point | 135 to 137 °C
COc1ccc2[nH]c(C(=O)N[C@H]3CCN(C(=O)c4cc(Cl)cc(Cl)c4)[C@H](Cc4ccccc4)C3)cc2c1 (relative stereo) | melting point | 251 °C

So, CNC(=O)NC1=NC(=CCC(=O)Nc2ccc(Cl)cc2)CS1 ? Its melting point was 203 to 205 °C

Noted for CCCCC1CC(=O)C2(C)CCC3=C4CCC(=O)C=C4CCC3C12 (stereo not given) : its melting point reads 159 to 161 °C

Lookup result for CC(=O)NCc1ccc(CN2CCN(c3nc(Cl)cc(Cl)n3)CC2)cc1 ; measured melting point: 139 to 140 °C

Value of melting point reported for the molecule CCc1cccc(C)c1CNc1c(NC(C)(C)C)c(=O)c1=O is 240 to 244 °C

In plain terms, CN(C)C=C(C#N)C(=O)c1cccc(Oc2ccccc2)c1 has a documented melting point of 80 to 82 °C

Item: CCc1ccc(CCOc2ccc(CC(N)C(=O)O)cc2)nc1 (stereo not given) | melting point: 214 to 221 °C

Note to self: melting point recorded for FC(F)C(F)(F)Sc1nc(-c2ccccc2)c(-c2ccccc2)n1C1CCCO1 (stereo not given) was 145 to 146 °C

# melting point of CCn1c(CCSC)nc(N2CCc3ccccc3CC2)c(C#N)c1=O = 102 to 104 °C

# melting point (molecule: CC(C)(C)OC(=O)N(Cc1ccccc1)C1(CO)CC1 ) is 68 °C
